Parameter: half-life at 2 μM. Scope: all listed entries.
# experimentNotes: Stability in liver microsomes
# Assay type: in vitro ADME
# statedConditions: pH 7.8; 2 μM peptidomimetic, human liver microsomes, 37° C.; read-out: half-life (t1/2) when incubated with liver microsomes

{"compound": "CCc1cc(OC)ccc1-c1ccc(CC(CNC(CCCc2ccccc2)C(N)=O)NC[C@H](CC(=O)O)NC(=O)[C@H](CO)NC(=O)[C@@H](NC(=O)C(C)(Cc2ccccc2F)NC(=O)[C@@H](NC(=O)CNC(=O)[C@H](CCC(N)=O)NC(=O)C(C)(C)NC(=O)[C@@H](N)Cc2c[nH]cn2)[C@H](C)O)[C@H](C)O)cc1 (single isomer, unassigned)", "half-life at 2 μM / h": 2}
{"compound": "CCc1cc(OC)ccc1-c1ccc(CC(NC(=O)[C@H](CC(=O)O)NC(=O)[C@H](CO)NC(=O)[C@@H](NC(=O)C(C)(Cc2ccccc2F)NC(=O)[C@@H](NC(=O)CNC(=O)C(CCC#N)NC(=O)C(C)(C)NC(=O)[C@@H](N)Cc2c[nH]cn2)[C@H](C)O)[C@H](C)O)C(=O)N(C)C(CCCc2ccccc2)C(N)=O)cc1 (single isomer, unassigned)", "half-life at 2 μM / h": 1}
{"compound": "CCc1cc(OC)ccc1-c1ccc(CC(NC(=O)[C@H](CC(=O)O)NC(=O)[C@H](CO)NC(=O)[C@@H](NC(=O)C(C)(Cc2ccccc2F)NC(=O)[C@@H](NC(=O)CNC(=O)C(CCC#N)NC(=O)C(C)(C)NC(=O)[C@@H](N)Cc2c[nH]cn2)[C@H](C)O)[C@H](C)O)C(=O)N(C)C(CCCc2ccccc2F)C(N)=O)cc1 (single isomer, unassigned)", "half-life at 2 μM / h": 1}

---

Recorded measurements of half-life at 2 μM, one per entry
# system: DPP IV (Homo sapiens, UniProt P27487)
# Sequence (P27487 whole entry, species assumed): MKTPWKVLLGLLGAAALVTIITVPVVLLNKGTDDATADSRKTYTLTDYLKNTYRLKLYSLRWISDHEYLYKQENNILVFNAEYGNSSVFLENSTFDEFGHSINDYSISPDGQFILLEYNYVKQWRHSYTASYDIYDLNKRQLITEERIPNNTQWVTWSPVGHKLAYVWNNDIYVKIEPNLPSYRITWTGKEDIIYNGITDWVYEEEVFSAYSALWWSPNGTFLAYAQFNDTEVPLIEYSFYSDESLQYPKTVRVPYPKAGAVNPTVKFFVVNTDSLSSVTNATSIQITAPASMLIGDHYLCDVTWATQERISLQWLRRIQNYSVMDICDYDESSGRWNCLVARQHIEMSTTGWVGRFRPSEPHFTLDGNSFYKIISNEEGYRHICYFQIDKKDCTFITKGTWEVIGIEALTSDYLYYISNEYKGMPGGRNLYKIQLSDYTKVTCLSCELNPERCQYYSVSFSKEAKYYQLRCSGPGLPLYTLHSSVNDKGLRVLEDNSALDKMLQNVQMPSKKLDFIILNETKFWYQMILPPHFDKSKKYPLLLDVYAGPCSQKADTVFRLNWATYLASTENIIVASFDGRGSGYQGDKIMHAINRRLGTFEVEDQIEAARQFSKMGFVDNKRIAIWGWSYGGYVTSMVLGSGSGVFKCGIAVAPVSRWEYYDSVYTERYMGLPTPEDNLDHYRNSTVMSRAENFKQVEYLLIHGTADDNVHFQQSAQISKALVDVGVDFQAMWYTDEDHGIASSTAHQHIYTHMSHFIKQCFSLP
# experimentNotes: Stability against DPP IV enzyme
# Format: in vitro ADME
# statedConditions: DPP IV enzyme, pH 7.8, 2 μM peptidomimetic, 37° C., read-out: half-life (t1/2) when incubated with DPP-IV enzyme
property: half-life at 2 μM

{"compound": "CCc1cc(OC)ccc1-c1ccc(CC(NC(=O)[C@H](CC(=O)O)NC(=O)[C@H](CO)NC(=O)[C@@H](NC(=O)C(C)(Cc2ccccc2F)NC(=O)[C@@H](NC(=O)CNC(=O)C(CCC#N)NC(=O)C(C)(C)NC(=O)[C@H](Cc2c[nH]cn2)NC(C)=O)[C@@H](C)O)[C@@H](C)O)C(=O)NC(CCCc2ccccc2F)C(N)=O)cc1 (single isomer, unassigned)", "system": "DPP IV (Homo sapiens, UniProt P27487)", "property": "half-life at 2 μM", "result": "> 24 h"}
{"compound": "CCc1cc(OC)ccc1-c1ccc(CC(NC(=O)[C@H](CC(=O)O)NC(=O)[C@H](CO)NC(=O)[C@@H](NC(=O)[C@H](Cc2ccccc2)NC(=O)[C@@H](NC(=O)CNC(=O)[C@H](CCC(N)=O)NC(=O)[C@H](CO)NC(=O)[C@@H](N)Cc2c[nH]cn2)[C@@H](C)O)[C@@H](C)O)C(=O)NC(CCCc2ccccc2Cl)C(N)=O)cc1 (single isomer, unassigned)", "system": "DPP IV (Homo sapiens, UniProt P27487)", "property": "half-life at 2 μM", "result": "9 h"}
{"compound": "CCc1cc(OC)ccc1-c1ccc(CC(NC(=O)[C@H](CC(=O)O)NC(=O)[C@H](CO)NC(=O)[C@@H](NC(=O)C(C)(Cc2ccccc2F)NC(=O)[C@@H](NC(=O)CNC(=O)C(CCC#N)NC(=O)C(C)(C)NC(=O)[C@@H](N)Cc2c[nH]cn2)[C@H](C)O)[C@H](C)O)C(=S)NC(CCCc2ccccc2F)C(N)=O)cc1 (single isomer, unassigned)", "system": "DPP IV (Homo sapiens, UniProt P27487)", "property": "half-life at 2 μM", "result": "9 h"}
{"compound": "CCc1cc(OC)ccc1-c1ccc(CC(NC(=O)[C@H](CC(=O)O)NC(=O)[C@H](CO)NC(=O)[C@@H](NC(=O)[C@H](Cc2ccccc2)NC(=O)[C@@H](NC(=O)CNC(=O)C(CCC#N)NC(=O)C(C)(C)NC(=O)[C@@H](N)Cc2c[nH]cn2)[C@@H](C)O)[C@@H](C)O)C(=O)NC(CCCc2ccccc2Cl)C(N)=O)cc1 (single isomer, unassigned)", "system": "DPP IV (Homo sapiens, UniProt P27487)", "property": "half-life at 2 μM", "result": "> 24 h"}
{"compound": "CCc1cc(OC)ccc1-c1ccc(CC(NC(=S)[C@H](CC(=O)O)NC(=O)[C@H](CO)NC(=O)[C@@H](NC(=O)C(C)(Cc2ccccc2F)NC(=O)[C@@H](NC(=O)CNC(=O)C(CCC#N)NC(=O)C(C)(C)NC(=O)[C@@H](N)Cc2c[nH]cn2)[C@H](C)O)[C@H](C)O)C(=S)NC(CCCc2ccccc2)C(N)=O)cc1 (single isomer, unassigned)", "system": "DPP IV (Homo sapiens, UniProt P27487)", "property": "half-life at 2 μM", "result": "> 24 h"}
{"compound": "CCc1cc(OC)ccc1-c1ccc(CC(NC(=O)[C@H](CC(=O)O)NC(=O)[C@H](CO)NC(=O)[C@@H](NC(=O)C(C)(Cc2ccccc2F)NC(=O)[C@@H](NC(=O)CNC(=O)C(CCC#N)NC(=O)C(C)(C)NC(=O)[C@@H](N)Cc2c[nH]cn2)[C@H](C)O)[C@@H](C)O)C(=O)NC(CCCc2ccccc2)C(N)=O)cc1 (single isomer, unassigned)", "system": "DPP IV (Homo sapiens, UniProt P27487)", "property": "half-life at 2 μM", "result": "> 24 h"}

meta.source: patent US8883963B2
